assay: Cytotoxicity against human PBMC assessed as reduction in cell viability incubated for 5 days by Cell-titer 96 aqueous one solution cell proliferation assay; format: cell-based; conditions: PBMC
reportedEndpoint: CC50 at 120 h
Write the numeric value and follow it with the unit.

(Q) What measured CC50 at 120 h goes with CCOC(=O)CCc1ccccc1OP(=O)(OC[C@H]1O[C@@H](n2cnc3c(N)nc(N)nc32)[C@](C)(O)[C@@H]1O)Oc1ccccc1CCC(=O)OCC ?
(A) 64 µM

* * *

system: HepG2; assay: Mitochondrial toxicity in human HepG2 cells assessed as effect on nuclear beta-actin DNA level incubated for 14 days by real-time PCR method; format: cell-based; conditions: hepg2, 336 h
reportedEndpoint: CC50

molecule	measurement
CC(C)OC(=O)CCc1ccccc1OP(=O)(N[C@@H](C)C(=O)OC(C)C)OC[C@H]1O[C@@H](n2cnc3c(N)nc(N)nc32)[C@](C)(O)[C@H]1O (some centres not stated)	> 50 µM

// for each molecule below, give its CC50
1. COc1nc(N)nc2c1ncn2[C@@H]1O[C@H](COP(=O)(N[C@@H](C)C(=O)OCC(C)(C)C)Oc2cccc3ccccc23)[C@@H](O)[C@@]1(C)O (some centres not stated)
2. CCOC(=O)[C@H](C)NP(=O)(OC[C@H]1O[C@@H](n2cnc3c(N)nc(N)nc32)[C@](C)(O)[C@@H]1O)Oc1ccccc1 (some centres not stated)
3. CCOC(=O)CCc1ccccc1O[P@@](=O)(N[C@@H](C)C(=O)OCC)OC[C@H]1O[C@@H](n2cnc3c(N)nc(N)nc32)[C@](C)(O)[C@H]1O

(A)
1: < 1 µM; 2: > 50 µM; 3: > 50 µM
